# Test system: Staphylococcus aureus ATCC 25923
# experimental setup: ATCC 25923, 24 h
Where a SMILES comes first, the peptide text is derived from it. Bridges are numbered along the chain shown (N, C = ends). Roman numbers before positions name the chains, in order. Side-chain parts run from the residue outwards. The star is where a group is joined. Myristoyl = CCCCCCCCCCCCCC(=O)*; Lauroyl = CCCCCCCCCCCC(=O)*; Decanoyl = CCCCCCCCCC(=O)*; Octanoyl = CCCCCCCC(=O)*
Output Met for records whose MIC Staphylococcus aureus ATCC 25923 is lower than 2 µg/mL, Not met for records at or above 2 µg/mL.

Reference set, count: 3
compound="CCCCCCCCCCCCCC(=O)N[C@@H](CCCNC(=N)N)C(=O)N[C@@H](CCCNC(=N)N)C(=O)NCCCC[C@H](NC(=O)[C@H](CCCNC(=N)N)NC(=O)[C@H](CCCNC(=N)N)NC(=O)CCCCCCCCCCCCC)C(N)=O [Compound B4] (Myristoyl-Arg-Arg-Lys([Arg-Arg-Myristoyl])-NH2)" target_or_system="Staphylococcus aureus ATCC 25923" label_class="Not met"
compound="CCCCCCCC(=O)N[C@@H](CCCNC(=N)N)C(=O)N[C@@H](CCCNC(=N)N)C(=O)N[C@@H](CSSC[C@H](NC(=O)[C@H](CCCNC(=N)N)NC(=O)[C@H](CCCNC(=N)N)NC(=O)CCCCCCC)C(N)=O)C(N)=O [Compound C1] (I: Octanoyl-Arg-Arg-Cys-NH2 / II: Octanoyl-Arg-Arg-Cys-NH2; disulfide I:3-II:3)" target_or_system="Staphylococcus aureus ATCC 25923" label_class="Not met"
compound="CCCCCCCCCCCC(=O)N[C@@H](CCCNC(=N)N)C(=O)N[C@@H](CCCNC(=N)N)C(=O)N[C@@H](CSSC[C@H](NC(=O)[C@H](CCCNC(=N)N)NC(=O)[C@H](CCCNC(=N)N)NC(=O)CCCCCCCCCCC)C(N)=O)C(N)=O [Compound C3] (I: Lauroyl-Arg-Arg-Cys-NH2 / II: Lauroyl-Arg-Arg-Cys-NH2; disulfide I:3-II:3)" target_or_system="Staphylococcus aureus ATCC 25923" label_class="Not met"

## Input State whether 2 µg/mL exceeds MIC Staphylococcus aureus ATCC 25923 recorded for CCCCCCCCCC(=O)N[C@@H](CCCNC(=N)N)C(=O)N[C@@H](CCCNC(=N)N)C(=O)NCCCC[C@H](NC(=O)[C@H](CCCNC(=N)N)NC(=O)[C@H](CCCNC(=N)N)NC(=O)CCCCCCCCC)C(N)=O [Compound B2] (Decanoyl-Arg-Arg-Lys([Arg-Arg-Decanoyl])-NH2) .
## Output Met

## Input Would you kindly verify if MIC Staphylococcus aureus ATCC 25923 of CCCCCCCCCCCCCC(=O)N[C@@H](CCCNC(=N)N)C(=O)N[C@@H](CCCNC(=N)N)C(N)=O [Compound A4, C14-RR-NH2] (Myristoyl-Arg-Arg-NH2) is strictly less than 2 µg/mL?
## Output Not met

----------
# assay protocol: Lipopeptide hydrophobicity by RP-HPLC (adjusted retention time)
# Format: physicochemical
# experimental setup: RP-HPLC, 20–65% acetonitrile over 30 min, indicator of hydrophobicity
Where a SMILES comes first, the peptide text is derived from it. Side-chain parts run from the residue outwards. The star is where a group is joined. Lauroyl = CCCCCCCCCCCC(=O)*; Decanoyl = CCCCCCCCCC(=O)*
measurement label: Adjusted Retention Time (min)
Field: numeric (min). Do not append units.

Some entries whose results are on file:
molecule="CCCCCCCCCC(=O)N[C@@H](CCCNC(=N)N)C(=O)N[C@@H](CCCNC(=N)N)C(N)=O [Compound A2, C10-RR-NH2] (Decanoyl-Arg-Arg-NH2)" measurement_label="Adjusted Retention Time" units_text=min recorded_value=7.74
molecule="CCCCCCCCCC(=O)N[C@@H](CCCNC(=N)N)C(=O)N[C@@H](CCCNC(=N)N)C(=O)NCCCC[C@H](NC(=O)[C@H](CCCNC(=N)N)NC(=O)[C@H](CCCNC(=N)N)NC(=O)CCCCCCCCC)C(N)=O [Compound B2] (Decanoyl-Arg-Arg-Lys([Arg-Arg-Decanoyl])-NH2)" measurement_label="Adjusted Retention Time" units_text=min recorded_value=13.73

With those in mind, consider the next molecule.
For reference, reported Adjusted Retention Time for CCCCCCCCCCCC(=O)N[C@@H](CCCNC(=N)N)C(=O)N[C@@H](CCCNC(=N)N)C(=O)NCCCC[C@H](NC(=O)[C@H](CCCNC(=N)N)NC(=O)[C@H](CCCNC(=N)N)NC(=O)CCCCCCCCCCC)C(N)=O [Compound B3] (Lauroyl-Arg-Arg-Lys([Arg-Arg-Lauroyl])-NH2) stands at 19.09

----------
# Tested on: Staphylococcus aureus ATCC 33591
# Type: cell-based
# experimental setup: ATCC 33591, 24 h
measurement label: MBEC Staphylococcus aureus ATCC 33591 (µg/mL)
Respond numerically; units are µg/mL and should not be typed.

Bench note, Staphylococcus aureus ATCC 33591: CCCCCCC(CCCC)C(=O)N[C@@H](CCCNC(=N)N)C(=O)N[C@@H](CCCNC(=N)N)C(=O)NCCCC[C@H](NC(=O)[C@H](CCCNC(=N)N)NC(=O)[C@H](CCCNC(=N)N)NC(=O)C(CCCC)CCCCCC)C(N)=O (some centres unmarked) , MBEC Staphylococcus aureus ATCC 33591 reads 4

----------
# Test system: Staphylococcus aureus ATCC 25923
# experimental setup: ATCC 25923, 24 h
Where a SMILES comes first, the peptide text is derived from it. Bridges are numbered along the chain shown (N, C = ends). Roman numbers before positions name the chains, in order. Side-chain parts run from the residue outwards. [ ]: non-standard residue; d: D form. The star is where a group is joined. Decanoyl = CCCCCCCCCC(=O)*; Nle = CCCC[C@H](N)C(=O)O; Octanoyl = CCCCCCCC(=O)*
The compounds listed here are annotated with their MIC Staphylococcus aureus ATCC 25923.
A number alone suffices; assume µg/mL.

compound="CCCCCCCC(=O)N[C@@H](CCCC)C(=O)N[C@@H](CCCNC(=N)N)C(=O)N[C@@H](CCCNC(=N)N)C(=O)N[C@@H](CSSC[C@H](NC(=O)[C@H](CCCNC(=N)N)NC(=O)[C@H](CCCNC(=N)N)NC(=O)[C@H](CCCC)NC(=O)CCCCCCC)C(N)=O)C(N)=O [Compound C6] (I: Octanoyl-[Nle]RRC-NH2 / II: Octanoyl-[Nle]RRC-NH2; disulfide I:4-II:4)" target_or_system="Staphylococcus aureus ATCC 25923" measurement_label="MIC Staphylococcus aureus ATCC 25923" units_text=µg/mL recorded_value=2
compound="CCCCCCCC(=O)N[C@@H](Cc1ccccc1)C(=O)N[C@@H](CCCNC(=N)N)C(=O)N[C@@H](CCCNC(=N)N)C(=O)NCCCC[C@H](NC(=O)[C@H](CCCNC(=N)N)NC(=O)[C@H](CCCNC(=N)N)NC(=O)[C@H](Cc1ccccc1)NC(=O)CCCCCCC)C(N)=O [Compound B5] (Octanoyl-FRRK([Arg-Arg-Phe-Octanoyl])-NH2)" target_or_system="Staphylococcus aureus ATCC 25923" measurement_label="MIC Staphylococcus aureus ATCC 25923" units_text=µg/mL recorded_value=2
compound="CCCCCCCC(=O)N[C@@H](CCCC)C(=O)N[C@@H](CCCNC(=N)N)C(=O)N[C@@H](CCCNC(=N)N)C(=O)NCCCC[C@H](NC(=O)[C@H](CCCNC(=N)N)NC(=O)[C@H](CCCNC(=N)N)NC(=O)[C@H](CCCC)NC(=O)CCCCCCC)C(N)=O [Compound B6] (Octanoyl-[Nle]RRK([Arg-Arg-Nle-Octanoyl])-NH2)" target_or_system="Staphylococcus aureus ATCC 25923" measurement_label="MIC Staphylococcus aureus ATCC 25923" units_text=µg/mL recorded_value=2
compound="CCCCCCCCCC(=O)N[C@@H](CCCNC(=N)N)C(=O)N[C@@H](CCCNC(=N)N)C(=O)N[C@@H](CSSC[C@H](NC(=O)[C@H](CCCNC(=N)N)NC(=O)[C@H](CCCNC(=N)N)NC(=O)CCCCCCCCC)C(N)=O)C(N)=O [Compound C2] (I: Decanoyl-Arg-Arg-Cys-NH2 / II: Decanoyl-Arg-Arg-Cys-NH2; disulfide I:3-II:3)" target_or_system="Staphylococcus aureus ATCC 25923" measurement_label="MIC Staphylococcus aureus ATCC 25923" units_text=µg/mL recorded_value=2

So, CCCCCCC(CCCC)C(=O)N[C@@H](CCCNC(=N)N)C(=O)N[C@@H](CCCNC(=N)N)C(=O)N[C@@H](CSSC[C@H](NC(=O)[C@H](CCCNC(=N)N)NC(=O)[C@H](CCCNC(=N)N)NC(=O)C(CCCC)CCCCCC)C(N)=O)C(N)=O (some centres unmarked) [Compound C7] ? Its MIC Staphylococcus aureus ATCC 25923 was 2
